Target: Upc2 (UniProt Q12151)
Sequence: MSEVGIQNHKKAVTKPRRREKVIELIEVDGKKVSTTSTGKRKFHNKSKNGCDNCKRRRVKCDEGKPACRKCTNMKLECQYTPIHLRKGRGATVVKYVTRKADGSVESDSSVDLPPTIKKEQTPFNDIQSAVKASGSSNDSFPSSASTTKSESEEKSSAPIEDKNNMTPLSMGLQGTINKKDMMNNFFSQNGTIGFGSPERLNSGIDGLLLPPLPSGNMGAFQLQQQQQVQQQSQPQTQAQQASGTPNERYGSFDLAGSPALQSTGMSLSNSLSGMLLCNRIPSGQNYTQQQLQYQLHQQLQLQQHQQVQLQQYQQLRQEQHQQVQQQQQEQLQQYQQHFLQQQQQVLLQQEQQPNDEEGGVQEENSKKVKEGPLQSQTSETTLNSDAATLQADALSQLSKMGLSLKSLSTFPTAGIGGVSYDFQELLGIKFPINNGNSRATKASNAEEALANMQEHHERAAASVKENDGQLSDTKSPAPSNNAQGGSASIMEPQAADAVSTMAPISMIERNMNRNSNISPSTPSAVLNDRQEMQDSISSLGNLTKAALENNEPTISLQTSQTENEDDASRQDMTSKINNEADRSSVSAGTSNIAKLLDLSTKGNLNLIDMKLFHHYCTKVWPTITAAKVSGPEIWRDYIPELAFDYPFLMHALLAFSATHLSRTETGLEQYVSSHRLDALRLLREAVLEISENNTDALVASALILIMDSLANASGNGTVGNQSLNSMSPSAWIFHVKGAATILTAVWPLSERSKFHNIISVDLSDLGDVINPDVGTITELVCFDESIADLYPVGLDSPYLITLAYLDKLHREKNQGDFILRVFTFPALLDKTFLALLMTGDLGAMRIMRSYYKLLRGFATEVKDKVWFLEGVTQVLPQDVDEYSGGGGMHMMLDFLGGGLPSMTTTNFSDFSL
Experiment: PBM E-score (8-mer binding enrichment) (E-score (-0.5 to 0.5)); higher = stronger / more preferred TF binding
Details: protein concentration: 200 nM; construct: GST-full length
The full ranking holds about 33,000 sequences; the median of “E-score (-0.5 to 0.5)” is about -0.043, and the highest 2% start at about 0.37. The sample holds the highest values, similar sequences and a random draw of the others, so the mix is not that of the screen.
Exercise: for every item that follows, state its recorded PBM E-score.

Observe how each entry below is paired with its result.
| entry sequence | PBM E-score |
| --- | --- |
| GCCGTAAC | 0.225 |
| ACCGAACG | 0.269 |
| AGAGCTAG | -0.113 |
| GGATACTA | -0.183 |
| AGACGACG | 0.237 |

Provide reported PBM E-score for each item, in the same order as listed.
1. ATCGAGGA
2. ACATGCGA
3. CACCTCCC

0.0976
0.128
-0.174

###

Target: Upc2 (UniProt Q12151)
Sequence: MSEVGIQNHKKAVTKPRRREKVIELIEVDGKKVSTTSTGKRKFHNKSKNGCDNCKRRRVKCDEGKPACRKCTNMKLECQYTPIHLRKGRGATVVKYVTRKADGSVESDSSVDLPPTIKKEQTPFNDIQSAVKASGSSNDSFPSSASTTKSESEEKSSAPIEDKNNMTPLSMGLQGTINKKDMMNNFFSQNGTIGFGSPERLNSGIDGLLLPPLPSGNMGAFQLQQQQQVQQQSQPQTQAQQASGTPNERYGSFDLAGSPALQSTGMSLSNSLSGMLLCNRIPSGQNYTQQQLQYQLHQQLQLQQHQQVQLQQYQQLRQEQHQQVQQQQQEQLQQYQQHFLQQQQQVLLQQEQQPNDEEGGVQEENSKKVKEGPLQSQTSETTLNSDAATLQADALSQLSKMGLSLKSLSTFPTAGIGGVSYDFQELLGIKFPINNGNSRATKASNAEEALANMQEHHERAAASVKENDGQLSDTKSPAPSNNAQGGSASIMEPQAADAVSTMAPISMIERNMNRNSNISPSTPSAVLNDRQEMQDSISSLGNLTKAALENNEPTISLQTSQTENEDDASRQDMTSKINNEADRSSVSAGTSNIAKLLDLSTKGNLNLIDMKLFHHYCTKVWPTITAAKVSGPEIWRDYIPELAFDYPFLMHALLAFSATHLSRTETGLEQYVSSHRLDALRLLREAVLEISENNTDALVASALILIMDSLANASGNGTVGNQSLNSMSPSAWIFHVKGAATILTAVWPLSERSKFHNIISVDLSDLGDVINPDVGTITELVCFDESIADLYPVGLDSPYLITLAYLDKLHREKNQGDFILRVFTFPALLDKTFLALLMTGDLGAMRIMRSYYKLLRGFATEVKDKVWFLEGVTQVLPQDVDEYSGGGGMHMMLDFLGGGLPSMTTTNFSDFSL
Experiment: PBM E-score (8-mer binding enrichment) (E-score (-0.5 to 0.5)); higher = stronger / more preferred TF binding
Conditions: protein concentration: 200 nM; construct: GST-full length
Over roughly 33,000 sequences, “E-score (-0.5 to 0.5)” has its median near -0.043; the highest 2% begin near 0.37. The sample as a whole holds a higher share of the highest values than the screen did.
Exercise: for every item that follows, state its recorded PBM E-score.
Answers are plain numbers.

Observe how each entry below is paired with its result.
| entry sequence | PBM E-score |
| --- | --- |
| ATGAGTGA | -0.101 |
| TGCGGCAA | -0.127 |

Provide reported PBM E-score for each item, in the same order as listed.
1. GAATCGCA
2. CACGATAA
3. CAATCGTG
4. CCTCACGA
5. ACGTAACA
6. ATCCTTAC
7. AAGAAGGC

1: -0.0934; 2: 0.074; 3: -0.153; 4: -0.219; 5: -0.0115; 6: -0.0381; 7: -0.216

Provide reported PBM E-score for each item, in the same order as listed.
1. ACGAGAAC
2. AGCCGTGG
3. ACGTACAA
4. GGCTTTTA
5. AAAACCAC

[0.375, -0.17, 0.309, -0.157, -0.0422]

Provide reported PBM E-score for each item, in the same order as listed.
1. ACGAGAAA
2. AAGACCCT
3. TTATCCAA
4. CAATCGTA
5. AAAGTGTT
6. TACGATAA
7. GGATTGTA
8. CGAAACAA

[0.349, -0.239, 0.0246, 0.4, 0.0836, 0.416, 0.107, 0.188]

###

Molecular target: Upc2 (UniProt Q12151)
Sequence: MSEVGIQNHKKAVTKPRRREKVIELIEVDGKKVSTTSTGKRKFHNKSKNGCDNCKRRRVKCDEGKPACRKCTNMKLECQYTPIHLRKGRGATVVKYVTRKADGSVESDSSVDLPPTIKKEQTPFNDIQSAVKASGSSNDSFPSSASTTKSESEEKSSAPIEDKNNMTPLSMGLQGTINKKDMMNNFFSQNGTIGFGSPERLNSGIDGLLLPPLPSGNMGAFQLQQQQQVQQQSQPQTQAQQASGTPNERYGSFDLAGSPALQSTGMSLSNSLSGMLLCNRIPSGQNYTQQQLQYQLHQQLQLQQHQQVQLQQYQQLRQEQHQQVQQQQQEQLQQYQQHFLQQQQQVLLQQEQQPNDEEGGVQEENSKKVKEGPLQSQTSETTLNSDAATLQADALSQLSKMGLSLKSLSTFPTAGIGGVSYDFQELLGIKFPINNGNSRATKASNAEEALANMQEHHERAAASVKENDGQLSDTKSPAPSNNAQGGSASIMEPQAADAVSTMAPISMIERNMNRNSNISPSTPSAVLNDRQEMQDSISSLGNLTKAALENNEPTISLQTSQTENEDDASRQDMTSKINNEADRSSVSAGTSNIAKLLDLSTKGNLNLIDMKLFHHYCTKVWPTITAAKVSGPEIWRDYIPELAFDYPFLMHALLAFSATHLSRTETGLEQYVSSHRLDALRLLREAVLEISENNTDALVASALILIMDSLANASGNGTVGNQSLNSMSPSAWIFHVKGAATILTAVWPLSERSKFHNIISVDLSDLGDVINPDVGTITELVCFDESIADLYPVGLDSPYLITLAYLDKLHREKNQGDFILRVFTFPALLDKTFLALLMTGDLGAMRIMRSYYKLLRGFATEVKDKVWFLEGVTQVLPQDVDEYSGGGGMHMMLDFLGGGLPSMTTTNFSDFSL
Assay: PBM E-score (8-mer binding enrichment) (E-score (-0.5 to 0.5)); higher = stronger / more preferred TF binding
Conditions: protein concentration: 200 nM; construct: GST-full length
In all, about 33,000 sequences were measured (“E-score (-0.5 to 0.5)”: median about -0.043, highest 2% from about 0.37 on). Many of the other results were omitted from the sample, so the highest values are more common in it than they were.
quantity name: PBM E-score
Answers are plain numbers.

| entry sequence | PBM E-score |
| --- | --- |
| CTTACGCA | 0.146 |

Provide reported PBM E-score for each item, in the same order as listed.
1. CTCACGAC
2. GGCCTCTA
3. GTTACGGA
4. CTTACGAA
5. ATAGCGAC

1: -0.146; 2: -0.0932; 3: 0.233; 4: 0.399; 5: 0.17

Provide reported PBM E-score for each item, in the same order as listed.
1. AGTGCGAT
2. CTCACGAA
3. AGCGTTTA
4. ATTACGAA
5. CTTACGCC

[0.0239, 0.0214, 0.363, 0.339, 0.0225]
